Target: T1, recombinant soluble human IL-6R (human, UniProt P08887 20-365)
T1 construct: also called sIL-6R; shIL-6R
T1 sequence: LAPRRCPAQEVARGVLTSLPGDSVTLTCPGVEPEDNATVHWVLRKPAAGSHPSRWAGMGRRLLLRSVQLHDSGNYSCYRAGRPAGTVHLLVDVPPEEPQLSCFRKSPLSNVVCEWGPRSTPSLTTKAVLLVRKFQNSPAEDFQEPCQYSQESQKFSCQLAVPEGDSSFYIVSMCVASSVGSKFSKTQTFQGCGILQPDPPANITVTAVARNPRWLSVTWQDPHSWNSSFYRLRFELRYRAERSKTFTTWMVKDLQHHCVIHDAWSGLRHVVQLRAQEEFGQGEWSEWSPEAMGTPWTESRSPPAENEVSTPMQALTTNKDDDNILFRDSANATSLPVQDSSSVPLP
Assay: standard gp130 ELISA (competition); column 'Potency'
VALUE_TYPE: pIC50
Scale: negative log10 of molar concentration, which is what pIC50 denotes.

(Q) For the binder ID-40V (VHH, Mutant of 7F6; also called 7F6 + R102H, F106H; not shown: C-terminal Flag- and His-tags of E. coli constructs) VHH: EVQLVESGGGLVQAGGSTRLTCLASGSISSINVIGWYRQAPGKQRELVAMIGRGEGANYGDFAKGRFTISRDNSKNTVYLQMNSLKPEDTAVYYCYADYEDHDSPHNGSWGQGTQVTVSS , give its measured pIC50 value.
(A) 9.68

(Q) For the binder ID-3V (VHH, Mutant of 7F6; also called 7F6 + R102H; not shown: C-terminal Flag- and His-tags of E. coli constructs) VHH: EVQLVESGGGLVQAGGSTRLTCLASGSISSINVIGWYRQAPGKQRELVAMIGRGEGANYGDFAKGRFTISRDNSKNTVYLQMNSLKPEDTAVYYCYADYEDHDSPFNGSWGQGTQVTVSS , give its measured pIC50 value.
(A) 9.80

(Q) For the binder ID-47V (VHH, Mutant of 7F6; also called 7F6 + F106I; not shown: C-terminal Flag- and His-tags of E. coli constructs) VHH: EVQLVESGGGLVQAGGSTRLTCLASGSISSINVIGWYRQAPGKQRELVAMIGRGEGANYGDFAKGRFTISRDNSKNTVYLQMNSLKPEDTAVYYCYADYEDRDSPINGSWGQGTQVTVSS , give its measured pIC50 value.
(A) 9.57

(Q) For the binder ID-50V (VHH, Mutant of 7F6; also called 7F6 + F106V; not shown: C-terminal Flag- and His-tags of E. coli constructs) VHH: EVQLVESGGGLVQAGGSTRLTCLASGSISSINVIGWYRQAPGKQRELVAMIGRGEGANYGDFAKGRFTISRDNSKNTVYLQMNSLKPEDTAVYYCYADYEDRDSPVNGSWGQGTQVTVSS , give its measured pIC50 value.
(A) 9.62

Every entry's value here was drawn from patent US20220380475A1.
